The following molecules each carry a recorded pKi for hNET (Homo sapiens).
In textbook form, pKi equals minus log to base ten of the concentration in mol/L.

Field: example entries. Status: answers known.
Molecule smiles	Measurement
CNC[C@@]1(c2ccccc2)C[C@@H]1c1ccccc1	5.41
CNC[C@]1(c2ccccc2)C[C@H]1c1ccc(Cl)c(Cl)c1	5.84
CNC[C@@]1(c2ccc(Cl)c(Cl)c2)C[C@@H]1c1ccc(Cl)c(Cl)c1	5.54

Quick check: pKi of CNC[C@@]1(c2ccccc2)C[C@@H]1c1ccc(Cl)c(Cl)c1 ?
5.73

Given CNC[C@]1(c2ccccc2)C[C@H]1c1ccccc1 , state its recorded pKi.
5.37

Record request: pKi value, item CNC[C@]1(c2ccc(Cl)c(Cl)c2)C[C@H]1c1ccc(Cl)c(Cl)c1
5.43

Fill in: pKi of CNC[C@@]1(c2ccc(Cl)c(Cl)c2)C[C@@H]1c1ccccc1 is ___
5.50

# query: pKi of entry CNC[C@]1(c2ccccc2)C[C@H]1c1ccc2ccccc2c1
5.90

###

- Test target: hSERT (Homo sapiens, UniProt P31645)
- Construct: expressed in transfected cells; host or cells: HEK293
- Sequence (P31645 whole entry): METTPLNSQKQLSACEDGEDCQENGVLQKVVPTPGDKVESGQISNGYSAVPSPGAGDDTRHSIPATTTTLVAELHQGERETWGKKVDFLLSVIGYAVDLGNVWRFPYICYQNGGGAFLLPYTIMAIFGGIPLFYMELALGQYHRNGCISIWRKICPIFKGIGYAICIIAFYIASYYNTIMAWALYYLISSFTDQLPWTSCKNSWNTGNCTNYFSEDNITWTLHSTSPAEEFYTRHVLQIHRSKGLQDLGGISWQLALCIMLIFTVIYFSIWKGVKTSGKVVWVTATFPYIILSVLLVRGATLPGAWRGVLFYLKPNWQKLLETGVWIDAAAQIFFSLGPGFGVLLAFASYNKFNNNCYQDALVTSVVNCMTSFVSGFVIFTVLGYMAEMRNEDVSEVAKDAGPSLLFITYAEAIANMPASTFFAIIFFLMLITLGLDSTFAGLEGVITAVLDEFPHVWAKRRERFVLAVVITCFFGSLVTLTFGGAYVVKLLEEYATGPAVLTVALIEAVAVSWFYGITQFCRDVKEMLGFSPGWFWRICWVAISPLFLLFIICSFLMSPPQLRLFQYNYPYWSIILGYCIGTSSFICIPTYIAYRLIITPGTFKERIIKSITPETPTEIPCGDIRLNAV
- Test name: Inhibition of [125I]RTI-55 binding to hSERT in HEK293 cell membranes
- Test settings: [125I]RTI-55 displacement, HEK-hSERT membranes; IC50 converted to Ki (Cheng-Prusoff); read-out: Transporter SERT
Here the recorded pKi is given for each entry.
# log scale: pKi equals minus log10 of the concentration in mol/L

Molecule smiles	pKi
CNC[C@@]1(c2ccc(Cl)c(Cl)c2)C[C@@H]1c1ccc(Cl)c(Cl)c1	6.76
CNC[C@@]1(c2ccc(Cl)c(Cl)c2)C[C@@H]1c1ccccc1	5.98
CNC[C@@]1(c2ccccc2)C[C@@H]1c1ccc(Cl)c(Cl)c1	6.94
CNC[C@]1(c2ccc(Cl)c(Cl)c2)C[C@H]1c1ccccc1	5.34

For the next question, use this compound.
Reported pKi for CNC[C@]1(c2ccc(Cl)c(Cl)c2)C[C@H]1c1ccc(Cl)c(Cl)c1 : what is it?
5.82
